The reported measurements were obtained from patent US20220073621A1.

Molecular target: T1, hPD-L1-His (human, UniProt Q9NZQ7 19-238)
T1 construct: Bought protein; also called hPD-L1-His (manufactured by Edison); not shown: His tag
T1 sequence (Q9NZQ7 19-238 limits assumed): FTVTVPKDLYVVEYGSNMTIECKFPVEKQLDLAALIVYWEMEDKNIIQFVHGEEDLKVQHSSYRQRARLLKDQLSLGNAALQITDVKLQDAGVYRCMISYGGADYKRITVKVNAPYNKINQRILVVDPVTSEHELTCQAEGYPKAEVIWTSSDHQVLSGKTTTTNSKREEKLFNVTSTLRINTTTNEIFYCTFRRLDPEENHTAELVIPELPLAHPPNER
Experiment: SPR (Biacore T200), antibody on Protein A chip, hPD-L1-His injected, 1:1 fit
Method: Subsequently, the binding affinity of the anti-PD-L1 chimeric antibody, humanized antibody, and marketed control antibody to hPD-L1-His (manufactured by Edison) were determined by surface plasmon resonance (Biacore T200 biosensor, Biacore, INC, Piscataway N.J.) equipped with pre-immobilized Protein A sensor chips. The detection results were read after the chip was regenerated with pH 2.0 glycine (30 μl/min, 10-20 s). […]
Experimental Readout: kon

| Binder | Measurement |
| --- | --- |
| 7E4-H2K1-IgG1 (antibody, V domains shown) VH: QVQLVQSGAEVKKPGASVKVSCKASGFKFTDYAIHWVRQAPGKSLEWMGVISIYYGEASYNQKFKDRVTLTVDTSASTAYMELSSLRSEDTAVYYCAREDYYGSSSYFDYWGQGTLVTVSS VL: DNQLTQSPSFLSASVGDRVTITCSASSSVSSSYLHWYQQKPGAAPKPLIHRTSNLASGVPSRFSGSGSGTEFTLTISSLQPEDFATYYCQQWSGYPYTFGGGTKLEIK | 128000 M⁻¹ s⁻¹ |
| 3F2-H2K2-IgG1 (antibody, V domains shown) VH: DVQLQESGPGLVKPSETLSLTCTVSGYSITSGYNWHWIRQFPGNGLEWMGYIHHSSITNYNPSLKSRITISRDTSKNQFSLKLSSVTAADTATFYCAREGYDYDWFAYWGQGTLVTVSS VL: DIVLTQSPDFQSVTPKEKVTLSCRASQSISNNLHWYQQKPDESPKLLIKYASQSISGIPSRFSGSGSGTDFTLTINSVEAEDFAMYFCQQSKSWPFTFGQGTRLEIK | 1.17e+06 M⁻¹ s⁻¹ |
| 3F2-H1K2-IgG1 (antibody, V domains shown) VH: QVQLQESGPGLVKPSETLSLTCTVSGYSITSGYNWHWIRQFPGNGLEWMGYIHHSSITNYNPSLKSRITISRDTSKNQFSLKLSSVTAADTATYYCAREGYDYDWFAYWGQGTLVTVSS VL: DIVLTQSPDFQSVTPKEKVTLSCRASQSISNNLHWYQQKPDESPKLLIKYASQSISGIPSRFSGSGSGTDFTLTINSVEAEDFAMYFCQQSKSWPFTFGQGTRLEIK | 1.06e+06 M⁻¹ s⁻¹ |
